# credit: ChEMBL document CHEMBL1287768

Molecular target: Neuropeptide S receptor (Homo sapiens, UniProt Q6W5P4)
Sequence (Q6W5P4 whole entry): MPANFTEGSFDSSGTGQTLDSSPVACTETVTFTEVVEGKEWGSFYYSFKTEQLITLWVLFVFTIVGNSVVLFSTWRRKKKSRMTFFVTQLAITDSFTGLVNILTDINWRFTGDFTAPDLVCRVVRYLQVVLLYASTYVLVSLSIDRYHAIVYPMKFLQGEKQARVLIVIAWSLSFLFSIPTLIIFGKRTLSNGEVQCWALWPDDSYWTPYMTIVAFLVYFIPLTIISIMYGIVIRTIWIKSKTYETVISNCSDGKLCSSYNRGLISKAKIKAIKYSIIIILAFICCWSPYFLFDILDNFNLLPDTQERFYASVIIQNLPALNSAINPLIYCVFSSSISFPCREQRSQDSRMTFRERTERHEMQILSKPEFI
Test: Antagonist activity at human recombinant GPR154 receptor expressed in HEK293 cells assessed as inhibition of neuropeptide S-induced increase of intracellular calcium level by FLIPR assay
pIC50: −log10 of the molar value.
Assay Endpoint: pIC50

Compound: O=C(Nc1ccccc1C(=O)N1CCCCC1)c1cccc(-c2ccccc2)n1
Result Operator: =
Quantitative Result: 7.70
//
Compound: O=C(Nc1ccccc1C(=O)N1CCCCC1)c1cccc(-c2ccccc2)c1
Result Operator: =
Quantitative Result: 6.60
//
Compound: O=C(Nc1ccccc1C(=O)N1CCCCC1)c1ccc(-c2ccccc2)o1
Result Operator: =
Quantitative Result: 7.50
//
Compound: O=C(c1ccccc1N1Cn2c(ccc2-c2ccccc2)C1=O)N1CCCCC1
Result Operator: =
Quantitative Result: 8.00
//
Compound: O=C(c1ccccc1N1CCCn2c(ccc2-c2ccccc2)C1=O)N1CCCCC1
Result Operator: <
Quantitative Result: 5.30
//
Compound: O=C(c1ccccc1N1CCn2c(ccc2-c2ccccc2)C1=O)N1CCCCC1
Result Operator: <
Quantitative Result: 5.30
//
Compound: O=C(Nc1ccccc1C(=O)N1CCCCC1)c1ccc(-c2ccccc2)s1
Result Operator: =
Quantitative Result: 6.10
//
Compound: O=C(NCc1ccccc1)N1CCN2C(=O)OC(c3ccccc3)(c3ccccc3)C2C1 (centres undefined)
Result Operator: =
Quantitative Result: 8.70
//
Compound: O=C(Nc1ccccc1C(=O)N1CCCCC1)c1ccc(-c2ccccc2)[nH]1
Result Operator: <
Quantitative Result: 5.30
